Target: T1, monkey Trop2 protein (Sino Biological, #90893-C08H) (monkey, UniProt A0A2K5UE71 27-274)
T1 construct: bought protein; also called monkey Trop2 protein antigen (His tag)
T1 sequence: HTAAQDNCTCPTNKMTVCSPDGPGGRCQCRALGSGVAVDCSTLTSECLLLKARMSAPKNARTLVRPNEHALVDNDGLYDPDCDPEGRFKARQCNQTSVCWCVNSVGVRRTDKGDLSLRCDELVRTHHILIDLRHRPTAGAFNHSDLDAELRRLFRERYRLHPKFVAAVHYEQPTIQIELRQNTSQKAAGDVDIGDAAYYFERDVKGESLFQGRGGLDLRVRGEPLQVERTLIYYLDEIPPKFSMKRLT
Assay: BLI, Octet RED96, AHC sensor
The following binders are shown together with reported koff values.
Answer with a number only, understood to be in s⁻¹.

Use these answered entries as a reference point.
| Binder | Measure | Unit Tag | Numeric Readout |
| --- | --- | --- | --- |
| PR001155 (antibody, human IgG1, kappa, V domains shown, fully human IgG1/kappa; also called antibody No. (18)) VH: QVQLVQSGGGVVQPGRSLRLSCAASGFTFSHYGMHWVRQAPGKGLEWVAVIWYDGIKKYYVESVKGRFTISRDNSKNTLYLQMNRLRAEDTAVYYCARDGGFGELNYYGLDVWGQGTTVTVSS VL: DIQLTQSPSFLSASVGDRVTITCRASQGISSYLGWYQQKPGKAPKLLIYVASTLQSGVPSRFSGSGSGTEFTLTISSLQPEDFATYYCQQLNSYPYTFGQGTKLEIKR | koff | s⁻¹ | 0.000219 |
| PR001156 (antibody, human IgG1, kappa, V domains shown, fully human IgG1/kappa; also called antibody No. (19)) VH: QVQLVESGGGVVQPGRSLRLSCEGSGFTFSHYGMHWVRQAPGKGLEWVAVIWYDGIKKNYVDSLKGRFTISRDNSKNTLYLQMNSLRAEDTAVYYCARDGGFGELNYYGMDVWGQGTTVTVSS VL: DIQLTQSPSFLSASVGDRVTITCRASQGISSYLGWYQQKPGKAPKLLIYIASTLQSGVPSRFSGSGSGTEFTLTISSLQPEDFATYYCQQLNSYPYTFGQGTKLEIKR | koff | s⁻¹ | 6.15e-05 |
| PR001158 (antibody, human IgG1, kappa, V domains shown, fully human IgG1/kappa; also called antibody No. (20)) VH: QVQLVESGGGVVQPGRSLRLSCVASGFTFSHYGMHWVRQAPGKGLEWVAVIWYDGIKKYYVESVKGRFTISRDNSKNTLNLQMNRLRAEDTAVYYCARDGGFGESNYYGLDVWGQGTTVTVSS VL: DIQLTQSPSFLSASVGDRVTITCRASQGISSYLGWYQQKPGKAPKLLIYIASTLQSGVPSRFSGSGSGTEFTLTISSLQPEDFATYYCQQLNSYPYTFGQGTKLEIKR | koff | s⁻¹ | 6.23e-05 |

Prompt: What does the data say about its koff? Entry: PR001164 (antibody, human IgG1, kappa, V domains shown, fully human IgG1/kappa; also called antibody No. (25)) VH: QVQLQQSGPGLVKPSQTLSLTCAISGDSVSSTSAVWNWIRQSPSRGLEWLGRTCYRSKWYNDYAVSVKSRITITPDTSKNQFSLRLNPVTPEDTAVYYCARGDFRFDSWGQGTLVTVSS VL: DIQLTQSPSFLSASVGDRVTITCRASQGISSYLAWYQQKPGKAPKLLIYAASTLQSGVPSRFSGSGSGTEFTLTISSLQPEDFATYYCQQVKIYPLTFGGGTKVEIKR
Completion: 0.000162

Values were extracted from patent US20240067748A1.
